tested.on: KAT7+JADE1+EAF6+ING5 4 protein complex (Homo sapiens (Human))
experimental.details: KAT7 JADE1 assay (SAMDI-MS acetylation of H3 1-21 peptide)
Type: biochemical
assay.context: Morrison equation fit; replicate number in parentheses; read-out: KAT7 JADE1 Ki (nM) (replicate number)
Parameter: Ki. Scope: all listed entries.
Respond numerically; units are nM and should not be typed.

{"molecule": "CCc1cc(Nc2cc3onc(NS(=O)(=O)c4c(OC)cc(-c5ccc(C)cn5)cc4OC)c3cc2OC)[nH]n1", "value.kind": "Ki", "unit.symbol": "nM", "measurement": 3.5}

Please report the recorded Ki for COc1cc2c(NS(=O)(=O)c3c(OC)cc(C4CCCCN4C)cc3OC)noc2cc1Nc1cc(C2CC2)n[nH]1 (racemic) [Example 155] . 24.3

Need Ki of CCOc1cccc(OC)c1S(=O)(=O)Nc1noc2cc(Nc3cc(C)[nH]n3)c(OC)cc12 , thanks. 82.6

###

tested.on: KAT7+BRPF1+EAF6+ING5 4 protein complex (Homo sapiens (Human), UniProt O95251)
experimental.details: KAT7 BRPF1 assay (SAMDI-MS acetylation of H3 1-21 peptide)
Assay type: biochemical
assay.context: Morrison equation fit; replicate number in parentheses
Quick reference for Ki among some molecules
The response must be a number in nM with no trailing unit.

Record excerpt, results attached:
{"query.smiles": "COc1cc2c(NS(=O)(=O)c3c(OC)cc(-c4ncc(N5CCN(C)CC5)cn4)cc3OC)noc2cc1Nc1cc(C2CC2)n[nH]1", "tested.on": "KAT7+BRPF1+EAF6+ING5 4 protein complex (Homo sapiens (Human), UniProt O95251)", "value.kind": "Ki", "measurement": 2.4}
{"query.smiles": "COc1cc2c(NS(=O)(=O)c3c(OC)cc(CN4CC[C@@H](F)C4)cc3OC)noc2cc1Nc1cc(C2CC2)n[nH]1", "tested.on": "KAT7+BRPF1+EAF6+ING5 4 protein complex (Homo sapiens (Human), UniProt O95251)", "value.kind": "Ki", "measurement": 3.4}
{"query.smiles": "COc1cc2c(NS(=O)(=O)c3c(OC)cccc3OC3CC3)noc2cc1Nc1cc[nH]n1", "tested.on": "KAT7+BRPF1+EAF6+ING5 4 protein complex (Homo sapiens (Human), UniProt O95251)", "value.kind": "Ki", "measurement": 11.2}
{"query.smiles": "CCc1cc(Nc2cc3onc(NS(=O)(=O)c4c(OC)cccc4OC)c3c(OC)c2F)[nH]n1", "tested.on": "KAT7+BRPF1+EAF6+ING5 4 protein complex (Homo sapiens (Human), UniProt O95251)", "value.kind": "Ki", "measurement": 1.1}
{"query.smiles": "COc1cc2c(NS(=O)(=O)c3cc4c(cc3OC)CCCC4)noc2cc1Nc1cc(C)n[nH]1", "tested.on": "KAT7+BRPF1+EAF6+ING5 4 protein complex (Homo sapiens (Human), UniProt O95251)", "value.kind": "Ki", "measurement": 7.5}
{"query.smiles": "CCOc1ccccc1S(=O)(=O)Nc1noc2cc(Nc3cc(C(C)C)[nH]n3)c(OC)cc12", "tested.on": "KAT7+BRPF1+EAF6+ING5 4 protein complex (Homo sapiens (Human), UniProt O95251)", "value.kind": "Ki", "measurement": 54.8}

Switching to the query record.
Item under review: COc1cc2c(NS(=O)(=O)c3cc(C(C)C)c(C)cc3OC)noc2cc1Nc1cc[nH]n1 . Reported Ki? 14.7

Hello, the source for this data is patent US20250122183A1, in case you need it.
